Tgt: hGIPR (Homo sapiens, UniProt P48546)
Construct: expressed in transfected cells; host or cells: CHO cells carrying a CRE-luciferase reporter gene
Sequence (P48546 22-466): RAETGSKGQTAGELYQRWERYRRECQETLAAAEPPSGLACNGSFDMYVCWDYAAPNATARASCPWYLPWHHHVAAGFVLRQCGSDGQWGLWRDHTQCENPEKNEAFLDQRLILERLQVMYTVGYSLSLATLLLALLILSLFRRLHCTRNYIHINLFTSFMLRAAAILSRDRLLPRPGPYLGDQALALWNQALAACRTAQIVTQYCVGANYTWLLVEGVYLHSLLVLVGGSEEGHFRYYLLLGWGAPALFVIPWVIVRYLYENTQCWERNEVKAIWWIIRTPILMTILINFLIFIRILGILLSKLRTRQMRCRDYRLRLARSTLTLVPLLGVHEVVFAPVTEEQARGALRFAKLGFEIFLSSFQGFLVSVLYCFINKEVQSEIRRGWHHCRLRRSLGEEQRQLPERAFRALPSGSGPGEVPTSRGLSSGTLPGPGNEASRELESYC
Assay: hGIPR CreLuc reporter gene assay in 0.5% and 100% plasma
Type: cell-based
Condition Summary: CreLuc reporter gene assay, 0.5% human plasma; read-out: hGIPR 0.5% hP
Method: Example 1: hGLPR/hGIPR/hNPY2R CreLuc Assay in 0.5% and 100% Plasma CHO and HEK-293 recombinant cell lines express a luciferase reporter gene under control of the cAMP responsive element (CRE). […] Following incubation, assay plates are equilibrated to room temperature, followed by addition of 25 μl of Bright-GIo™ Luciferase reagent, incubation at room temperature for 10 minutes and analysis of luminescence (Envision Reader). […]
Starred links: 1 amine or outer side, 2 acyl side, 3 side chain; linkers in the order of their positions; H or OH if unused. Non-standard residues stand in square brackets, D forms with d. Groups on a side chain read outwards from the residue. *: point of attachment. C20 diacid = O=C(O)CCCCCCCCCCCCCCCCCCC(=O)*; C18 diacid = O=C(O)CCCCCCCCCCCCCCCCC(=O)*; γGlu = O=C(O)[C@H](CCC(=O)[*:2])N[*:1]; εLys = N[C@@H](CCCCN[*:1])C(=O)[*:2]; AEEA = NCCOCCOCC(=O)O; Aib = CC(C)(N)C(=O)O
Measure: EC50

Q. Quick one: EC50 for H-Y[Aib]EGTFTSDYSI[Aib]LESQAQ[Aib]AFVEWLIK([εLys-γGlu-γGlu-γGlu-γGlu-γGlu-γGlu-C20 diacid])GGPSSGASLRHYYNWLTRQRY-NH2 [Compound 121] ?
A. 0.65 nM

Q. Quick one: EC50 for H-Y[Aib]EGTFTSDYSI[Aib]LEEEAQ[Aib]AFVEWLIK([εLys-γGlu-γGlu-γGlu-γGlu-γGlu-γGlu-C20 diacid])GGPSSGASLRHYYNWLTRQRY-NH2 [Compound 66] ?
A. 0.64 nM

Q. Quick one: EC50 for H-Y[Aib]EGTFTSDYSI[Aib]LEKQAQ[Aib]EFVEWLIK([AEEA-AEEA-γGlu-γGlu-γGlu-γGlu-C18 diacid])GGPSSPASLRHYYNWLTRQRY-NH2 [Compound 56] ?
A. 0.27 nM

====

Below, each of the substances is paired with its reported pEC50 value.
Tgt: hGLP1R (Homo sapiens, UniProt P43220)
Construct: expressed in transfected cells; host or cells: HEK-293 cells carrying a CRE-luciferase reporter gene
Sequence (P43220 24-463): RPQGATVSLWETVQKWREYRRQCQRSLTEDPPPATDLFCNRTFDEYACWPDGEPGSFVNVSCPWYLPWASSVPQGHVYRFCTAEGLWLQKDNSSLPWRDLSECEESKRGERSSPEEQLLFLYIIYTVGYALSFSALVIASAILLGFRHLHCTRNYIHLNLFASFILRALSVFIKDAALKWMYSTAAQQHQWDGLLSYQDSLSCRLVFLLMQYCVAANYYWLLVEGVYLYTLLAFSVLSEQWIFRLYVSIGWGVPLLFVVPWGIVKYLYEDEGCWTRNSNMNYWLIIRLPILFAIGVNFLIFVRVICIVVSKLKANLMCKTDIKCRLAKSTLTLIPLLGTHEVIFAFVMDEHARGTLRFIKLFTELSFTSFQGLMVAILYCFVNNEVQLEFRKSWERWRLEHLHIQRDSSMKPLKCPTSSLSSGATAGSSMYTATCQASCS
Assay: hGLP1R CreLuc reporter gene assay in 0.5% and 100% plasma
Type: cell-based
Condition Summary: CreLuc reporter gene assay, 0.5% human plasma; read-out: hGLP1R 0.5% hP
Starred links: 1 amine or outer side, 2 acyl side, 3 side chain; linkers in the order of their positions; H or OH if unused. Non-standard residues stand in square brackets, D forms with d. Groups on a side chain read outwards from the residue. No end group written: not given here. *: point of attachment. C20 diacid = O=C(O)CCCCCCCCCCCCCCCCCCC(=O)*; C18 diacid = O=C(O)CCCCCCCCCCCCCCCCC(=O)*; γGlu = O=C(O)[C@H](CCC(=O)[*:2])N[*:1]; εLys = N[C@@H](CCCCN[*:1])C(=O)[*:2]; β3hQ = NC(=O)CC[C@H](N)CC(=O)O; AEEA = NCCOCCOCC(=O)O; Aib = CC(C)(N)C(=O)O; Ahx = NCCCCCC(=O)O
Please report pEC50 as the negative decimal logarithm of the molar concentration, giving only the number.

Known results for substances:
Y[Aib]EGTFTSDYSI[Aib]LEKQAQ[Aib]AFVQWLIK([AEEA-AEEA-γGlu-γGlu-γGlu-C18 diacid])GGPSEGASLRHYYNWLTRQRY-NH2 [Compound 266]
10.00
H-Y[Aib]EGTFTSDYSI[Aib]LEK(Ac)QAQ[Aib]AFVEWLIK([εLys-γGlu-γGlu-γGlu-γGlu-γGlu-γGlu-C20 diacid])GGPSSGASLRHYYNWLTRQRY-NH2 [Compound 192]
9.89
H-Y[Aib]EGTFTSDYSI[Aib]LEKQAQ[Aib]AFVEWLIK([εLys-γGlu-γGlu-γGlu-γGlu-γGlu-γGlu-C20 diacid])GGPSYGASLRHYYNWLTRQRY-NH2 [Compound 232]
9.68
H-Y[Aib]EGTFTSDYSI[Aib]LEKQAQ[Aib]AFVQWLIK([εLys-γGlu-γGlu-γGlu-γGlu-γGlu-γGlu-C18 diacid])GGPEEGASLRHYYNWLTRQRY-NH2 [Compound 149]
9.82
H-Y[Aib]EGTFTSDYSI[Aib]LEKQAQ[Aib]AFVQWLIK([AEEA-AEEA-γGlu-γGlu-γGlu-C18 diacid])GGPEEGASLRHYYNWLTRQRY-NH2 [Compound 144]
9.80
H-Y[Aib]EGTFTSDYSI[Aib]LEKQAQ[Aib]AFVEWLIK([εLys-γGlu-γGlu-γGlu-γGlu-γGlu-γGlu-C20 diacid])GGPSEGASLRHYYNWLTR[β3hQ]RY-NH2 [Compound 277]
9.72
H-Y[Aib]EGTFTSDYSI[Aib]LEKQAQ[Aib]AFVQWLIK([Ahx-γGlu-γGlu-γGlu-γGlu-γGlu-C18 diacid])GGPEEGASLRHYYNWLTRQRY-NH2 [Compound 162]
9.70
H-Y[Aib]EGTFTSDYSI[Aib]LEKQAQ[Aib]AFVEWLIK([AEEA-AEEA-γGlu-γGlu-γGlu-γGlu-C20 diacid])GGPSEPASLRHYYNWLTRQRY-NH2 [Compound 226]
9.62

Q. Quick one: pEC50 for H-Y[Aib]EGTFTSDYSI[Aib]LEEQAQ[Aib]AFVEWLIK([εLys-AEEA-AEEA-γGlu-γGlu-γGlu-γGlu-C20 diacid])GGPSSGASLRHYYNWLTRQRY-NH2 [Compound 100] ?
A. 9.92

Q. Quick one: pEC50 for H-Y[Aib]EGTFTSDYSI[Aib]LEKQAQ[Aib]AFVQWLIK([Ahx-γGlu-γGlu-γGlu-γGlu-γGlu-γGlu-C18 diacid])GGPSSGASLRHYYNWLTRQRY-NH2 [Compound 139] ?
A. 10.15
